Target: Cholecystokinin receptor type A (Homo sapiens)
Sequence (P32238 whole entry): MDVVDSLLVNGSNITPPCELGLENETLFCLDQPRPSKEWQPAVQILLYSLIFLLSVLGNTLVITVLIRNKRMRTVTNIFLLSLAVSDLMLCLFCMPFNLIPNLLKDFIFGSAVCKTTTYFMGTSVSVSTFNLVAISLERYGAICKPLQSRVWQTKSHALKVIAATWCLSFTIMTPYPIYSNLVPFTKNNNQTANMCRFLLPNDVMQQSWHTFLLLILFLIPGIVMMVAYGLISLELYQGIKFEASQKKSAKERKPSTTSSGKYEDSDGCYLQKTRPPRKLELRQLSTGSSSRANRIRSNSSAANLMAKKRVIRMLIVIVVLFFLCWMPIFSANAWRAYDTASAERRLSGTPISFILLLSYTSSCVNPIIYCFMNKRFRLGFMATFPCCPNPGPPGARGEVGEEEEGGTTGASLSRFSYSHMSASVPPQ
Test: Displacement of [111In]DTPA-Glu-Gly-[Tyr27(SO3H)]-CCK8 from human CCK1 receptor expressed in A431 cells
Assay type: cell-based, A-431
Numbered stars: 1 amine (or outer) side, 2 acyl side, 3 side chain; on linkers, the order of the positions; unused ones are H or OH. Bridge positions count the residues as written; N and C are the ends. Square brackets hold non-standard residues; d marks the D form. Peptide text beside a SMILES is read from it. X4 = O=C([C@H](CCCCNCc1ccccc1)N[*:1])[*:2]; sY = N[C@@H](Cc1ccc(OS(=O)(=O)O)cc1)C(=O)O; X3 = O=C([C@H](CCNCc1ccccc1)N[*:1])[*:2]; X2 = O=C([C@H](CNCc1ccccc1)N[*:1])[*:2]; Dap = NC[C@H](N)C(=O)O; βAla = NCCC(=O)O
parameter: pIC50
Friendly reminder that pIC50 comes from taking -log10 of the concentration in mol/L.

Per the records, this molecule ( CSCC[C@@H]1NC(=O)[C@H](Cc2c[nH]c3ccccc23)NC(=O)[C@@H](NC(=O)[C@H](CCSC)NC(=O)[C@H](Cc2ccc(OS(=O)(=O)O)cc2)NC(=O)[C@@H](N)CC(=O)O)CNC(=O)CNC(=O)[C@H](CCCCNCc2ccccc2)NC(=O)[C@H](CC(=O)O)NC1=O (H-D[sY]M[Dap]WMD[X4]G; lactam 4-C) ) has pIC50 equal to 4.61

Continuing:
Summary for this molecule, CSCC[C@@H]1NC(=O)[C@H](Cc2c[nH]c3ccccc23)NC(=O)[C@@H](NC(=O)[C@H](CCSC)NC(=O)[C@H](Cc2ccc(OS(=O)(=O)O)cc2)NC(=O)[C@@H](N)CC(=O)O)CNC(=O)CNC(=O)[C@H](Cc2ccccc2)NC(=O)[C@H](CC(=O)O)NC1=O (H-D[sY]M[Dap]WMDFG; lactam 4-C) : pIC50 is 4.58

Just so you know, measured pIC50 for CSCC[C@@H]1NC(=O)[C@H](Cc2c[nH]c3ccccc23)NC(=O)[C@@H](NC(=O)[C@H](CCSC)NC(=O)[C@H](Cc2ccc(OS(=O)(=O)O)cc2)NC(=O)[C@@H](N)CC(=O)O)CNC(=O)CNC(=O)[C@H](C)NC(=O)[C@H](CC(=O)O)NC1=O (H-D[sY]M[Dap]WMDAG; lactam 4-C) came out at 5.14

Reported pIC50 of CSCC[C@@H]1NC(=O)[C@H](Cc2c[nH]c3ccccc23)NC(=O)[C@@H](NC(=O)[C@H](CCSC)NC(=O)[C@H](Cc2ccc(OS(=O)(=O)O)cc2)NC(=O)[C@@H](N)CC(=O)O)CNC(=O)[C@H](CCCCN)NC(=O)[C@H](Cc2ccccc2)NC(=O)[C@H](CC(=O)O)NC1=O (H-D[sY]M[Dap]WMDFK; lactam 4-C) : 4.82

Quick note, pIC50 for CSCC[C@@H]1NC(=O)[C@H](Cc2c[nH]c3ccccc23)NC(=O)[C@@H](NC(=O)[C@H](CCSC)NC(=O)[C@H](Cc2ccc(OS(=O)(=O)O)cc2)NC(=O)[C@@H](N)CC(=O)O)CNC(=O)CCNC(=O)[C@H](Cc2ccccc2)NC(=O)[C@H](CC(=O)O)NC1=O (H-D[sY]M[Dap]WMDF[βAla]; lactam 4-C) landed at 4.57

molecule CSCC[C@@H]1NC(=O)[C@H](Cc2c[nH]c3ccccc23)NC(=O)[C@@H](NC(=O)[C@H](CCSC)NC(=O)[C@H](Cc2ccc(OS(=O)(=O)O)cc2)NC(=O)[C@@H](N)CC(=O)O)CNC(=O)CNC(=O)[C@H](CNCc2ccccc2)NC(=O)[C@H](CC(=O)O)NC1=O (H-D[sY]M[Dap]WMD[X2]G; lactam 4-C) , pIC50 observed: 5.13

Quick note, pIC50 for CSCC[C@@H]1NC(=O)[C@H](Cc2c[nH]c3ccccc23)NC(=O)[C@@H](NC(=O)[C@H](CCSC)NC(=O)[C@H](Cc2ccc(OS(=O)(=O)O)cc2)NC(=O)[C@@H](N)CC(=O)O)CNC(=O)CNC(=O)[C@H](CCNCc2ccccc2)NC(=O)[C@H](CC(=O)O)NC1=O (H-D[sY]M[Dap]WMD[X3]G; lactam 4-C) landed at 5.16

Source: ChEMBL document CHEMBL1149620
